B1: NCF4 (parent)
chain: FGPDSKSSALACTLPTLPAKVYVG

variants of: B1; assay: protein stability index of a GFP-peptide fusion (GPS, HEK-293T) (PSI 1-6); higher = more stable; conditions: c terminus: a fixed tail appended;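 also: lentivirally expressed fusions sorted by FACS into six bins by GFP to DsRed ratio, PSI derived from sequencing read proportions per bin multiplied by bin number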
Kindly state protein stability index for each of the entries shown.
Numbers only.

Mutation Label	Property Name	Numeric Readout
G2P	protein stability index	2.59

Provide protein stability index values for the following items, in order.
1. P15K
2. L14C

// result
1.86
1.77

# batch: return protein stability index for each of the 3 variants below
1. A19L
2. L10G
3. A19H

// result
1. 1.41
2. 2.93
3. 2.17

Lab note: each variant below needs its protein stability index filled in.
1. D4R
2. T13P
3. K20E
4. K6N
5. G2T
6. P18G
7. S8P
8. K20A

// result
2.1
1.88
2.13
2.8
2.06
2.12
2.22
2.01

Hey, quick one: what's protein stability index for each of these?
1. G24I
2. S5Y
3. A11T
4. S7E

// result
[1.74, 1.51, 2.51, 2.72]

The measurements presented in this section are drawn from the supplement of paper PMC10567573.
